biological target: CDK8/CycC (Homo sapiens); assay: In vitro IC50 profile for CDKs family kinase (33PanQinase radiometric assay); conditions: CDK7 selectivity profile in CDKs family
Sequence (P49336 whole entry): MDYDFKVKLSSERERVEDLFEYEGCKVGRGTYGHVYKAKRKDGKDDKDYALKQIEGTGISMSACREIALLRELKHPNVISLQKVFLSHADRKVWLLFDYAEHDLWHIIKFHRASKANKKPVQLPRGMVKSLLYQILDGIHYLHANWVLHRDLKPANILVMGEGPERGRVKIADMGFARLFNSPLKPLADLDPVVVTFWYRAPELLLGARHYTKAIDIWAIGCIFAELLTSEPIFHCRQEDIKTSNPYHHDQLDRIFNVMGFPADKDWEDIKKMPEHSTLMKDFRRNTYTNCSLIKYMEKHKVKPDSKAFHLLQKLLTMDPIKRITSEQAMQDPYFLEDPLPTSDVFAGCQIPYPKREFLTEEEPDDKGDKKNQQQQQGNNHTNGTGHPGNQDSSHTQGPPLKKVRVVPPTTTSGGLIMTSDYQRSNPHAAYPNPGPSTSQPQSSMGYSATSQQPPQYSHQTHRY
Sequence (P24863 whole entry partner): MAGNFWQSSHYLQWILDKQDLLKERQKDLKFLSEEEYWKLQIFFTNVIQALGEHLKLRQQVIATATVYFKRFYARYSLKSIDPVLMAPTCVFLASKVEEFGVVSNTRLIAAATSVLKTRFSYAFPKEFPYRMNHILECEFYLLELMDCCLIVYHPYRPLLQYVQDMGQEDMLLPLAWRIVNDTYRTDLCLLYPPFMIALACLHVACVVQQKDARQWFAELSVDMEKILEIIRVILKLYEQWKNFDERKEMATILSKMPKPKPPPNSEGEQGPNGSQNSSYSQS
experimentalReadout: IC50

- CC(C)c1cnn2c(NCc3c(Cl)cccc3-n3ccc(C(C)(C)O)n3)nc(N3CCC(N)CC3)nc12: > 10 µM

----------
Listed here: items and their measured pIC50.
system: RPMI-8226; assay: Cellular RPMI-8226 viability assay (CellTiter-Glo, 72 hours); format: cell-based; details: Homo sapiens
pIC50: −log10 of the molar value.
experimentalReadout: pIC50

• CC(C)c1cnn2c(NCc3ccccc3-c3nccc4cc(NC(=O)CCCN(C)C)ccc34)nc(N3CCC(N)CC3)nc12 = 5.00 to 6.00
• CC(C)c1cnn2c(NCc3ccccc3-c3cn4ccc(F)cc4n3)nc(N3CCC(N)CC3)nc12 = > 6.00
• CC(C)c1cnn2c(NCc3ccccc3-c3[nH]c4ccccc4c3Cl)nc(N3CCC(N)CC3)nc12 = 5.00 to 6.00
• CC(C)c1cnn2c(NCc3ccccc3-n3ncc4ccccc43)nc(N3CCC(N)CC3)nc12 = 5.00 to 6.00
• CC(C)c1cnn2c(NCc3ccccc3-n3cc4ccc(C(F)(F)F)cc4n3)nc(N3CCC(N)CC3)nc12 = > 6.00
• CNC(=O)c1ccccc1CNc1nc(N2CCC(N)CC2)nc2c(C(C)C)cnn12 = > 6.00
• CC(C)c1cnn2c(NCc3ccccc3-c3ccc4[nH]cnc4c3)nc(N3CCC(N)CC3)nc12 = > 6.00
• CC(C)CC(=O)Nc1cccc2cc(-c3ccccc3CNc3nc(N4CCC(N)CC4)nc4c(C(C)C)cnn34)[nH]c12 = > 6.00
• CC(C)c1cnn2c(NCc3ccccc3-n3cc4cc(Oc5ccccc5)ccc4n3)nc(N3CCC(N)CC3)nc12 = 5.00 to 6.00
• CNC(=O)c1ccc2nn(-c3ccccc3CNc3nc(N4CCC(N)CC4)nc4c(C(C)C)cnn34)cc2c1 = > 6.00
• CC(C)c1cnn2c(NCc3ccccc3-c3cc4cc([N+](=O)[O-])ccc4[nH]3)nc(N3CCC(N)CC3)nc12 = > 6.00
• CC(C)c1cnn2c(NCc3ccccc3N3CC4CCCCC4C3)nc(N3CCC(N)CC3)nc12 (stereo not drawn) = 5.00 to 6.00
• CC(C)c1cnn2c(NCc3ccccc3-c3cc4ccccc4[nH]3)nc(NC3CCOCC3)nc12 = 5.00 to 6.00
• CC(C)c1cnn2c(NCc3ccccc3-c3cc4ccccc4[nH]3)nc(N3CCC(N)CC3)nc12 = > 6.00
• CC(C)c1cnn2c(NCc3cccc4ccc(N)nc34)nc(N3CCC(N)CC3)nc12 = 5.00 to 6.00
• CC(C)c1cnn2c(NCc3ccccc3-n3cc4cc(Br)ccc4n3)nc(N3CCC(N)CC3)nc12 = 5.00 to 6.00
• CC(C)c1cnn2c(NCc3ccccc3-c3cc4ccccc4[nH]3)nc(NCC3CNCCO3)nc12 (racemic) = 5.00 to 6.00
• CC(C)c1cnn2c(NCc3ccccc3-n3cc4cc(-c5ccccc5)ccc4n3)nc(N3CCC(N)CC3)nc12 = 5.00 to 6.00
• CC(C)c1cnn2c(NCc3ccccc3-c3nc4ccccc4o3)nc(N3CCC(N)CC3)nc12 = > 6.00
• CC(C)c1cnn2c(NCc3ccccc3Nc3ccccc3)nc(N3CCC(N)CC3)nc12 = 5.00 to 6.00
• CC(C)c1cnn2c(NCc3c(Cl)cccc3-c3ccc4[nH]cnc4c3)nc(N3CCC(N)CC3)nc12 = 5.00 to 6.00
• CC(=O)Nc1ccc2[nH]c(-c3ccccc3CNc3nc(N4CCC(N)CC4)nc4c(C(C)C)cnn34)cc2c1 = > 6.00
• CC(C)c1cnn2c(NCc3ccccc3NC(=O)c3ccccc3)nc(N3CCC(N)CC3)nc12 = > 6.00
• CC(C)c1cnn2c(NCc3ccccc3-n3cc4c(n3)CCC(=O)C4)nc(N3CCC(N)CC3)nc12 = 5.00 to 6.00
• CC(C)c1cnn2c(NCc3ccccc3-n3cc4ccccc4n3)nc(N3CCC(N)CC3)nc12 = > 6.00
• CC(C)c1cnn2c(NCc3ccccc3-n3cc4cc(C(N)=O)ccc4n3)nc(N3CCC(N)CC3)nc12 = > 6.00
• CC(C)c1cnn2c(NCc3ccccc3-n3cc4cc(C(=O)N5CCCC5)ccc4n3)nc(N3CCC(N)CC3)nc12 = 5.00 to 6.00
• CC(C)c1cnn2c(NCc3ccccc3-c3cc4ccccc4[nH]3)nc(N3CCNC(=O)C3)nc12 = 5.00 to 6.00
• CC(C)c1cnn2c(NCc3ccccc3-c3cc4ccccc4[nH]3)nc(N3CCC[C@@H](N)C3)nc12 = 5.00 to 6.00
• CCCc1ccc2nn(-c3ccccc3CNc3nc(N4CCC(N)CC4)nc4c(C(C)C)cnn34)cc2c1 = > 6.00
